Every entry's value here was drawn from patent US7776847B2.

# Test system: HCV replicon
# experiment_description: HCV replicon luciferase reporter assay
# Assay type: cell-based
# test_parameters: Hepatitis C virus, Table 5; read-out: IC50
pIC50: −log10 of the molar value.
measurement_name: pIC50

Which pIC50 reading was recorded for the molecule c1ccc2oc(CNCCCNc3nsc4ccccc34)cc2c1 [Compound 337] ? > 5.30

Check COc1cccc2cc(C(=O)NCCCNc3nsc4ccccc34)oc12 [Compound 435] too. > 5.30

Check CN(C)CCCNc1cccc(C(=O)NCCCNc2nsc3ccccc23)n1 [Compound 447] too. > 5.30

Check COc1ccc(-c2ccc(CNCCCNc3nsc4nccnc34)cc2)cc1 [Entry 241] too. > 5.30

New cases:
Which pIC50 reading was recorded for the molecule Cc1nc(S(=O)(=O)NCCCNc2nsc3ccccc23)cn1C [Compound 248] ? > 5.30
